Molecular target: truncated His-MBP-Tev-KLHDC2 (residues 1-363) (Homo sapiens, UniProt Q9Y2U9)
Construct: truncated His -MBP-Tev-KLHDC2 (residues 1-363) purified from E. coli; made in house; host or cells: E. coli
Sequence (Q9Y2U9 1-363): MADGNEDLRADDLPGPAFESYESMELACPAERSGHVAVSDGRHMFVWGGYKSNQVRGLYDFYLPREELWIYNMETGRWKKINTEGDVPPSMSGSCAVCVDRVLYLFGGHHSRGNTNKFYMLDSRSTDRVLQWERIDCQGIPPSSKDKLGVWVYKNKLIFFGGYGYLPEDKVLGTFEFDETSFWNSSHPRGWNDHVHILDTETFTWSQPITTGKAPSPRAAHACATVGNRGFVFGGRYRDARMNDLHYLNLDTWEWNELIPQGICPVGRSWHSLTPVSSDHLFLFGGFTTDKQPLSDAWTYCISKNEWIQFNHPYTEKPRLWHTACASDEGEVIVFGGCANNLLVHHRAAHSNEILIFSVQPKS
Experiment: KLHDC2 HTRF binding assay
Conditions: 1 nM KLHDC2 (residues 1-363), fluorescein-labeled diglycine peptide probe
We begin with a simple list: items and their reported IC50.

Below: 3 molecules and their reported IC50.
O=C(O)C1CC(=O)N(C2CCSc3ccccc32)C1 (centres unmarked) = > 5 µM
O=C(O)Cc1cccc(NC(=O)c2ccccc2)c1 = > 5 µM
O=C(O)Cn1cc(-c2ccc(F)cc2F)ccc1=O = > 5 µM

Let us move to another entry and its IC50.
Entry O=C(O)Cn1cc(NC(=O)c2cccc(-c3ccccc3F)c2)ccc1=O : reported IC50 = ?
> 5 µM
